For each of the molecules below, state its pIC50.
Test system: cPLA2α (Homo sapiens)
Sequence (P47712 1-749): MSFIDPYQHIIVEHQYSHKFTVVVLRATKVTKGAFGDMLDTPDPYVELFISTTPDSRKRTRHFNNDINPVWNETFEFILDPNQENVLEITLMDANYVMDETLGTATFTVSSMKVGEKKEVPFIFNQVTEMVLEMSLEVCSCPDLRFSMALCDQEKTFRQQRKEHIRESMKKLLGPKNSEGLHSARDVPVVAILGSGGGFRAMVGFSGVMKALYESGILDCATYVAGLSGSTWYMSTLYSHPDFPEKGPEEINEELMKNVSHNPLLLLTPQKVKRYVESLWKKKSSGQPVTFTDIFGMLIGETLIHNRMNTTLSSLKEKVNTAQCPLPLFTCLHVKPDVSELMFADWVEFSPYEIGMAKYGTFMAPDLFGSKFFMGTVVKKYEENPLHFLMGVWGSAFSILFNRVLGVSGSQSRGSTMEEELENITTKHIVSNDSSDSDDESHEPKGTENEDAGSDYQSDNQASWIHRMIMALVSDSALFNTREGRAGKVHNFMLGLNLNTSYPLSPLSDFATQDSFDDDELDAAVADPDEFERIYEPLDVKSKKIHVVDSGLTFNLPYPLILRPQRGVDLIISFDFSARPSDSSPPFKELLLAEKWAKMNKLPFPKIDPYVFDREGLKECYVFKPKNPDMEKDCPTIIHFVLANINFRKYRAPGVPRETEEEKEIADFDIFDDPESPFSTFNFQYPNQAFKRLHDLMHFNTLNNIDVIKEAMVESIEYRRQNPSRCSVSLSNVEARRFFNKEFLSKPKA
// pIC50 here means minus log10 of the molar concentration (mol/L)

Q: I'd like to know its pIC50. The molecule in question is O=C(O)c1ccc(CCCc2c(CCNS(=O)(=O)Cc3ccccc3CN3CCOCC3)n(C(c3ccccc3)c3ccccc3)c3ccc(Cl)cc23)cc1 [Example 17]
A: 8.00

Q: Consider next the molecule Cc1noc(C)c1-c1ccccc1CS(=O)(=O)NCCc1c(CCCc2ccc(C(=O)O)cc2)c2cc(Cl)ccc2n1C(c1ccccc1)c1ccccc1 [Example 33] in the same way.
A: 7.66

Q: Also Cc1cccc([N+](=O)[O-])c1CS(=O)(=O)NCCc1c(CCOc2ccc(C(=O)O)cc2)c2cc(Cl)ccc2n1C(c1ccccc1)c1ccccc1 [Example 4] , if possible.
A: 7.27

Q: Queued: O=C(O)c1ccc(CCCc2c(CCNS(=O)(=O)Cc3c([N+](=O)[O-])cccc3C(F)(F)F)n(C(c3ccccc3)c3ccccc3)c3ccc(Cl)cc23)cc1 [Example 27]
A: 7.42

Q: Also need Cc1cccc([N+](=O)[O-])c1CS(=O)(=O)NCCc1c(CCCc2ccc(C(=O)O)cc2)c2cc(Cl)ccc2n1C(c1ccccc1)c1ccccc1 [Example 9] , thanks.
A: 7.66

Q: Would you kindly repeat that for CC(c1ccccc1C(F)(F)F)S(=O)(=O)NCCc1c(CCS(=O)(=O)c2ccc(CCC(=O)O)cc2)c2cc(Cl)ccc2n1C(c1ccccc1)c1ccccc1 (stereo not drawn) [Example 39] ?
A: 7.17
